Sourced from ChEMBL document CHEMBL4732252

Molecular target: Receptor-type tyrosine-protein kinase FLT3 (Homo sapiens)
Sequence (P36888 whole entry, the tested form may be a part): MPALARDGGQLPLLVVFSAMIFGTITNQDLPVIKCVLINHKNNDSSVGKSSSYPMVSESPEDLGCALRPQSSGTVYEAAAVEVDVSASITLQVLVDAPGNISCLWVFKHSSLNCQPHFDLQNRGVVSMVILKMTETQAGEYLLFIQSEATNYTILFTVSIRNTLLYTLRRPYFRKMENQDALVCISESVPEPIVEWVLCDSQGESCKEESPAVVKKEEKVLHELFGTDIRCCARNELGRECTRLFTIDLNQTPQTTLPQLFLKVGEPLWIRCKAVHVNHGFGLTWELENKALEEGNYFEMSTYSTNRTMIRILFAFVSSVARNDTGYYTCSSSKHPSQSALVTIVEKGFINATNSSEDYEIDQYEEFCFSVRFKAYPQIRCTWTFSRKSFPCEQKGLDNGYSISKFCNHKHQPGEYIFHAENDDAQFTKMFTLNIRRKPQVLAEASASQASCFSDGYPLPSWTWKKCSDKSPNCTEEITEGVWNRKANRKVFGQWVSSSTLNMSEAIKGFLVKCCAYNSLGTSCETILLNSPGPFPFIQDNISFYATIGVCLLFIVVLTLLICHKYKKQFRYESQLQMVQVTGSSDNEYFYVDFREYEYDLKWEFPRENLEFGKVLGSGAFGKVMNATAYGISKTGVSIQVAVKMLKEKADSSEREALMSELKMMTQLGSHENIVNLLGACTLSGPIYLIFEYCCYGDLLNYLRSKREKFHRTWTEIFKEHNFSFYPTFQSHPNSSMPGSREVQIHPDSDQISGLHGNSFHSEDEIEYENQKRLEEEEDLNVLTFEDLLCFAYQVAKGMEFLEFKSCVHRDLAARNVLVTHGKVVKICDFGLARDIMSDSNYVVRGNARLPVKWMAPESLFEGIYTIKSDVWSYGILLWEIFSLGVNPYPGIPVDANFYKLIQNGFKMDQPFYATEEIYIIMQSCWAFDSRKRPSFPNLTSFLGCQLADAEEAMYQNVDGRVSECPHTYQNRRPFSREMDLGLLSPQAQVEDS
Experiment: Inhibition of His6/TEV fused-GST-tagged Flt3 (unknown origin) (H564 to S993 residues) using Axltide (CKKSRGDYMTMQJ-acid) peptide as substrate preincubated for 30 mins followed by substrate and ATP addition at Km concentration measured after 75 mins by RapidFire LC-MS analysis
readout_type: pIC50
Answers are plain numbers, as −log10 of the molar value.

> print(dat)
                               query.smiles  readout.type  number
1  CS(=O)(=O)c1cnc(Nc2ccc(O)cc2)nc1NCc1ccccc1         pIC50    5.90
2  CNC(=O)c1sc(N2CC3CC2(CNC(=O)c2c[nH]c4ncc(C)cc24)C3)nc1C(F)(F)F         pIC50    5.80
3  CN(Cc1ccc2nccn2c1)c1nnc(-c2ccc(OC3CCCC3)cc2)o1         pIC50    4.70
4  CNC(=O)c1sc(N2CC3CC2(CNC(=O)c2c[nH]c4ncccc24)C3)nc1C(F)(F)F         pIC50    5.30
5  C[C@@H]1CN(c2cnc(Nc3cc(F)c(OCC4CC4)c(F)c3)nc2NC2CCOCC2)CCN1         pIC50    5.00
6  Cc1cc(N(C)C)ccc1-c1nnc(N(C)Cc2ccc3nccn3c2)o1         pIC50    4.50

Value wanted: pIC50 (Receptor-type tyrosine-protein kinase FLT3 (Homo sapiens)) of entry O=C(Nc1ccc(Oc2cc(NC(=O)C3CC3)ncn2)cc1)Nc1ccc(CN2CCn3ccnc3C2)c(C(F)(F)F)c1
8.50
